# Tested on: L6
# assay.info: Cytotoxicity against rat L6 cells after 72 hrs by alamar blue assay
# Type: cell-based
# run.conditions: L6, 72 h
pIC50: −log10 of the molar value.
Entries and their pIC50 values follow.
outcome.measure: pIC50

[[record]]
molecule = "N/C(CC(O)c1ccc2ccccc2c1)=N\\N=C\\c1ccc(Cl)c(Cl)c1 (stereo not given)"
outcome_measure = "pIC50"
readout_value = 4.00

[[record]]
molecule = "C[C@H]1[C@H](OC(=O)CCC(=O)O)O[C@@H]2O[C@@]3(C)CC[C@H]4[C@H](C)CC[C@@H]1[C@@]24OO3 [ARTESUNATE]"
outcome_measure = "pIC50"
readout_value = 4.62

[[record]]
molecule = "N/C(CC(O)c1cccc2ccccc12)=N\\N=C\\c1ccco1 (stereo not given)"
outcome_measure = "pIC50"
readout_value = 3.84

[[record]]
molecule = "Cc1ccc(/C=N/N=C(\\N)CC(O)c2ccc3ccccc3c2)cc1 (stereo not given)"
outcome_measure = "pIC50"
readout_value = 3.99

[[record]]
molecule = "CCN(CC)CCCC(C)Nc1ccnc2cc(Cl)ccc12 (stereo not given) [CHLOROQUINE]"
outcome_measure = "pIC50"
readout_value = 4.11


###

# Tested on: Plasmodium falciparum
# assay.info: Antiplasmodial activity against Plasmodium falciparum Dd2 asexual blood stages after 3 days by HRP2 detection based ELISA method
# Assay type: functional, organism-based
# run.conditions: Dd2, 72 h
Could you please mark Criterion met for values of IC50 below 600 nM and Criterion not met for values at or above it?

[[record]]
compound = "N/C(CC(O)c1cccc2ccccc12)=N\\N=C\\c1cccc(Br)c1 (stereo unspecified)"
class_label = "Criterion met"

[[record]]
compound = "N/C(CC(O)c1ccc2ccccc2c1)=N\\N=C\\c1ccc(Cl)c(Cl)c1 (stereo unspecified)"
class_label = "Criterion not met"

[[record]]
compound = "Cc1ccc(/C=N/N=C(\\N)CC(O)c2cccc3ccccc23)cc1 (stereo unspecified)"
class_label = "Criterion met"

[[record]]
compound = "N/C(CC(O)c1cc2ccccc2c2ccccc12)=N\\N=C\\c1ccccc1 (stereo unspecified)"
class_label = "Criterion met"

[[record]]
compound = "N/C(=N\\N=C\\c1ccccc1)C(O)c1ccc2ccccc2c1 (stereo unspecified)"
class_label = "Criterion not met"

[[record]]
compound = "N/C(CC(O)c1cccc2ccccc12)=N\\N=C\\c1ccc(F)c(F)c1 (stereo unspecified)"
class_label = "Criterion met"


###

Entries and their selectivity ratio values follow.
# assay.info: Selectivity index, ratio of IC50 for rat L6 cells to IC50 for Plasmodium falciparum 3D7 asexual blood stages
# Type: toxicity, cell-based
# run.conditions: read-out: Ratio IC50
outcome.measure: selectivity ratio

[[record]]
compound = "Cc1ccc(/C=N/N=C(\\N)CC(O)c2cccc3ccccc23)cc1 (stereo not drawn)"
outcome_measure = "selectivity ratio"
readout_value = 36

[[record]]
compound = "N/C(CC(O)c1cccc2ccccc12)=N\\N=C\\c1cccc(Br)c1 (stereo not drawn)"
outcome_measure = "selectivity ratio"
readout_value = 43

[[record]]
compound = "N/C(CC(O)c1cccc2ccccc12)=N\\N=C\\c1cccnc1 (stereo not drawn)"
outcome_measure = "selectivity ratio"
readout_value = 8

[[record]]
compound = "N/C(CC(O)c1cccc2ccccc12)=N\\N=C\\c1ccccc1 (stereo not drawn)"
outcome_measure = "selectivity ratio"
readout_value = 170

[[record]]
compound = "N/C(CC(O)c1cccc2ccccc12)=N\\N=C\\c1ccco1 (stereo not drawn)"
outcome_measure = "selectivity ratio"
readout_value = 284

[[record]]
compound = "N/C(CC(O)c1ccc2ccccc2c1)=N\\N=C\\c1ccc(F)cc1F (stereo not drawn)"
outcome_measure = "selectivity ratio"
readout_value = 23

[[record]]
compound = "Cc1ccc(/C=N/N=C(\\N)CC(O)c2ccc3ccccc3c2)cc1 (stereo not drawn)"
outcome_measure = "selectivity ratio"
readout_value = 190

[[record]]
compound = "N/C(CC(O)c1cc2ccccc2c2ccccc12)=N\\N=C\\c1ccc(F)cc1 (stereo not drawn)"
outcome_measure = "selectivity ratio"
readout_value = 1890

[[record]]
compound = "N/C(CC(O)c1cc2ccccc2c2ccccc12)=N\\N=C\\c1ccccc1 (stereo not drawn)"
outcome_measure = "selectivity ratio"
readout_value = 383

[[record]]
compound = "N/C(CC(O)c1cccc2ccccc12)=N\\N=C\\c1ccc(Cl)c(Cl)c1 (stereo not drawn)"
outcome_measure = "selectivity ratio"
readout_value = 63

[[record]]
compound = "COc1cc([C@@H]2c3cc4c(cc3[C@H](O)[C@H]3COC(=O)[C@H]23)OCO4)cc(OC)c1OC"
outcome_measure = "selectivity ratio"
readout_value = 0.0016

[[record]]
compound = "CCOc1cc(/C=N/N=C(\\N)CC(O)c2cccc3ccccc23)ccc1O (stereo not drawn)"
outcome_measure = "selectivity ratio"
readout_value = 17

[[record]]
compound = "N/C(=N\\N=C\\c1ccccc1)C(O)c1cccc2ccccc12 (stereo not drawn)"
outcome_measure = "selectivity ratio"
readout_value = 100

